# TARGET: vanilloid receptor 1 (VR1/TRPV1 receptor) (Homo sapiens, UniProt Q8NER1)
# Construct: expressed in transfected cells; host or cells: CHO K1 cells (ECACC), stably transfected
# Sequence (Q8NER1 whole entry): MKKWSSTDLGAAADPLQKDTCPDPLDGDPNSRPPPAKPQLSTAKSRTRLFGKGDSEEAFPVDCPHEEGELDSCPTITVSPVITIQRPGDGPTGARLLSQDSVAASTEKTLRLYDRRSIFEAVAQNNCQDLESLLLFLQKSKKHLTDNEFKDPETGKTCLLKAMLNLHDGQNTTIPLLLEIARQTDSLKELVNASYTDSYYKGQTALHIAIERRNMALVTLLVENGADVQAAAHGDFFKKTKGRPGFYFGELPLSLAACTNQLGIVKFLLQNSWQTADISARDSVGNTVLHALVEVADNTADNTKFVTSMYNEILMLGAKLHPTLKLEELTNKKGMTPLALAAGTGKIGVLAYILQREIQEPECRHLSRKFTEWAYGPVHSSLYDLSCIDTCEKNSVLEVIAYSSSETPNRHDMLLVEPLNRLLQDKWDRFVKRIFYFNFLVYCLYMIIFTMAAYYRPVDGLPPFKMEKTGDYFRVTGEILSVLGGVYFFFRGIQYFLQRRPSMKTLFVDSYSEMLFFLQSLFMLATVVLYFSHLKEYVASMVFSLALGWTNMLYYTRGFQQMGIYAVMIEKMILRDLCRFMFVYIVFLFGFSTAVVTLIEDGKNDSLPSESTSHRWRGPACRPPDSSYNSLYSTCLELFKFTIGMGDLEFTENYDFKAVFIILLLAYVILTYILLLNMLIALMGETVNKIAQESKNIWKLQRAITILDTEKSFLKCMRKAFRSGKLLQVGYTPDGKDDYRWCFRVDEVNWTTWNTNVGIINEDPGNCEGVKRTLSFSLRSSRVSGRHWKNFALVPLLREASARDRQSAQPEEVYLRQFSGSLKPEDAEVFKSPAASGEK
# ASSAY_NAME: Functional testing on vanilloid receptor 1: FLIPR Ca2+ influx assay against capsaicin (Cap) in transfected CHO K1 cells (pharmacological method II)
# Type: cell-based
# RECORDED_CONDITIONS: read-out: (f) Ki (human being) [nM] Cap
READOUT: log10 Ki (log10 of the value in nM)
Use the decimal logarithm of Ki (nM).

# log10 Ki (compound: CC(C(=O)NCc1cc(C(F)(F)F)nn1-c1cccc(Cl)c1)c1cc(F)c(O)c(F)c1 (centres unmarked) [A10] ) is 0.00

# log10 Ki (compound: COCCOCc1ccc(C(C)C(=O)NCc2cc(C(F)(F)F)nn2-c2cccc(Cl)c2)cc1F (centres unmarked) [A111] ) is 1.58

# log10 Ki (compound: COc1ccc(-n2nc(C(F)(F)F)cc2CNC(=O)Nc2ccc(CO)c(F)c2)cc1 [A68] ) is 1.11

# log10 Ki (compound: Cc1cc(-n2nc(C(F)(F)F)cc2CNC(=O)Nc2ccc(CO)c(F)c2)ccc1Cl [A78] ) is 1.04

# log10 Ki (compound: O=C(NCc1cc(C(F)(F)F)nn1-c1ccccc1)Nc1ccc(CO)c(F)c1 [A58] ) is 0.78

# log10 Ki (compound: COc1ccc(NC(=O)NCc2cc(C(F)(F)F)nn2-c2cccc(Cl)c2)cc1OC [A14] ) is 1.40

# log10 Ki (compound: CC(C(=O)NCc1cc(C(C)(C)C)nn1-c1cccc(Cl)c1)c1ccc(C2(O)CC2)c(F)c1 (centres unmarked) [A100] ) is -0.15

# log10 Ki (compound: CC(C)c1cccc(-n2nc(C(F)(F)F)cc2CNC(=O)C(C)c2ccc(CO)c(F)c2)c1 (centres unmarked) [A44] ) is -0.70

# log10 Ki (compound: CC(C(=O)NCc1cc(C(F)(F)F)nn1-c1cccc(Cl)c1)c1ccc(CO)c(F)c1 (centres unmarked) [A33] ) is 0.30

# log10 Ki (compound: CC(C)c1cccc(-n2nc(C(F)(F)F)cc2CNC(=O)Nc2ccc(CO)c(F)c2)c1 [A82] ) is 0.30

# log10 Ki (compound: CC(C(=O)NCc1cc(C(F)(F)F)nn1-c1cccc(Cl)c1)c1cc(F)c(CO)c(F)c1 (centres unmarked) [A52] ) is 2.15
